assay: soluble fraction after stress (log2 fold change); higher = more stays soluble; pooled small domains, quantitative proteomics; details: stress: 50 degC
Param threshold (-0.05) applies to soluble fraction (log2); output 1 (yes) when value >= threshold, 0 (no) when value < threshold.

[[record]]
item_sequence = "HMVTDVDELEKLIQKVLDSNSSQVDEYRQGKEKVFGFFVGAVMKLTKGQADPDVVNQLLKEKLSGRK"
classification = "1 (yes)"

[[record]]
item_sequence = "HMNEKTGTLTVYSSPGWAKVYIDGEYKGITPVMANLTYGDHYVKLTLDGYDSIGNHIDVNSPDQSYTGKF"
classification = "0 (no)"

[[record]]
item_sequence = "HMDAGLAEIIRSFEDNLGGFPPAAREDLLGWREIFTDDLILLAIKKAALAGVRKWSYVNGILKVWKNEGVR"
classification = "0 (no)"

[[record]]
item_sequence = "HMNREMLVHAIGQLKEKYASALELKYWHGFTEREIAAFLNISEKAANSRLVRGRVMLRKLLE"
classification = "1 (yes)"

[[record]]
item_sequence = "HMKVSRTAVKLHHANAVEVAKKLQPLFVVGDVQIEPVKDAGIILLKGPASTLADLRESIVQMDHTA"
classification = "1 (yes)"

[[record]]
item_sequence = "HMAEVDDESIKLYDGGYQSNTTKSRLNALLSEFGYDTEHVFQKQFEWFISIFDLTEKAMRTVPFSNGMRL"
classification = "0 (no)"

[[record]]
item_sequence = "HMNNDFVERLRKLFGHASMAEIARRIDVPHATIRNYFQGRLPAPEVLIKLARETGVSLNWLLTGEGKMFA"
classification = "0 (no)"

[[record]]
item_sequence = "HMEGPALKVWKARYLRAAILEQLLSDRWDDRGGQPIRVVVNEPTNSLLIRIPRHLWPEAEKLLQELDQR"
classification = "0 (no)"

[[record]]
item_sequence = "HMQLTPAQHAILAHALEHSDGKIVWFPDNIKGGARKKVLDGLLNRALITTDGTDWFVAAEGYDAMGR"
classification = "0 (no)"

[[record]]
item_sequence = "HMDRSIGDIIAELRDLSAEQVERVLAHQRETGVRFGEAAVALGYASKEDVLFALSQQFHYPYAPEE"
classification = "0 (no)"

[[record]]
item_sequence = "HMDVALEALDESDGAVRLQFSGALQTYLNDSTTAASLEAISKTFRAFYEAAGRPVDTLEVYAAGEPVT"
classification = "1 (yes)"

[[record]]
item_sequence = "HMDENMQRYNTMEEIKKEFPYAEDTVRKLIAMGAIRGGGKVDANGDPADMDLSRDMLRMMVFNDRAGAYG"
classification = "1 (yes)"

[[record]]
item_sequence = "HMNSRQPEEEALFELLAKNPYSDEQLEEIRIAIGSGISYKDVLVIADIKNTAKQMKKLRLKFTKDTG"
classification = "0 (no)"

[[record]]
item_sequence = "HMVTDSGEIEKLVDEVIDNNPDQVQQFREGKQQVLSYLVGQAMKLSRGKANPNQVNQFLRDKL"
classification = "1 (yes)"

[[record]]
item_sequence = "HMTADIRFLNSRKFYIYKVEKGETLFSISQKFNIPQEEIIQFNKDINQQGLKAKTKLWVPAYSWL"
classification = "0 (no)"

[[record]]
item_sequence = "HMRYLHTMIRVSDLEESLNFFKLLDIHEVSRKENEQARFTLVFLSATGDEKLVENAKSPLIELTFN"
classification = "0 (no)"

[[record]]
item_sequence = "HMSEEIKVPNFVGSTFEKAQALAQETGLEIARGEDVYSPDQEEGKITSQNPTADSVVSPGKLITVYVSKG"
classification = "1 (yes)"


Every entry's value here was drawn from the domain aggregation screens of Martell et al. (2025).
